TGT: T1, hRET.mFc (human)
T1 construct: also called dimeric human RET
METHOD_DESCRIPTION: SPR Biacore T200, mAb capture, 25 C
EXPERIMENTAL_ENDPOINT: koff (s⁻¹)
Number in s⁻¹, nothing else.

Here are 8 binders together with their reported answers.
BINDER	MEASUREMENT
H4H8045P (antibody, human IgG4, V domains shown, human IgG4 Fc (H4H prefix)) VH: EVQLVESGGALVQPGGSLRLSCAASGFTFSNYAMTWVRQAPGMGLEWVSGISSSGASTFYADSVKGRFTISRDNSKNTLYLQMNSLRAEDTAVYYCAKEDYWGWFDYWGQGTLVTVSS VL: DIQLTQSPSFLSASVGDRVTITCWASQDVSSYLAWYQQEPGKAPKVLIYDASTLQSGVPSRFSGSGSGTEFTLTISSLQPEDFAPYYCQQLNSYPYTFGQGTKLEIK	8.71e-05
H4H8058P (antibody, human IgG4, V domains shown, human IgG4 Fc (H4H prefix)) VH: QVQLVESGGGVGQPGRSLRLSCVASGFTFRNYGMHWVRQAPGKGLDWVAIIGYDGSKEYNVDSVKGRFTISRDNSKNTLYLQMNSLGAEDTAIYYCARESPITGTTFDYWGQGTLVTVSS VL: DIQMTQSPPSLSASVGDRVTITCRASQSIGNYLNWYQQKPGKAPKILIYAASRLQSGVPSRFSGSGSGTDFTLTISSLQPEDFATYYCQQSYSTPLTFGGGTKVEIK	0.000259
H4H8084P (antibody, human IgG4, V domains shown, human IgG4 Fc (H4H prefix)) VH: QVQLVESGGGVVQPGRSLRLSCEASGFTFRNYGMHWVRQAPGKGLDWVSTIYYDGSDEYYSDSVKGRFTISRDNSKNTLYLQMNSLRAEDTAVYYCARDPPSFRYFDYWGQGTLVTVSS VL: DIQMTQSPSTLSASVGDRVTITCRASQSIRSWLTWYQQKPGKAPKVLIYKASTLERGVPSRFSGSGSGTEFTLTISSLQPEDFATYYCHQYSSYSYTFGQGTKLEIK	0.000204
H4H8080P (antibody, human IgG4, V domains shown, human IgG4 Fc (H4H prefix)) VH: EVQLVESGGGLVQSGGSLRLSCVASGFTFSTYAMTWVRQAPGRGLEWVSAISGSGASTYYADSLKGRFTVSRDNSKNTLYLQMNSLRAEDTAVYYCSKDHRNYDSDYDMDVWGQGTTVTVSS VL: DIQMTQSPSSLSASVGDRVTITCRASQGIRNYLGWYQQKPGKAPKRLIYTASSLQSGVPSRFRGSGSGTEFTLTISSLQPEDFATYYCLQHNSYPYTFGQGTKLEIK	0.000242
H4H8076P (antibody, human IgG4, V domains shown, human IgG4 Fc (H4H prefix)) VH: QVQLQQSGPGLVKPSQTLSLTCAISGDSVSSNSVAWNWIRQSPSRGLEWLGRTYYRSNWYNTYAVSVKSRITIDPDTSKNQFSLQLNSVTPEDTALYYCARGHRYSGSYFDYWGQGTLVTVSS VL: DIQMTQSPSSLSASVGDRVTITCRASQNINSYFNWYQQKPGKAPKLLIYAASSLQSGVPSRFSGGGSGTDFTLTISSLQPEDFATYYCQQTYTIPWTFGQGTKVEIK	0.000171
H4H8060P (antibody, human IgG4, V domains shown, human IgG4 Fc (H4H prefix)) VH: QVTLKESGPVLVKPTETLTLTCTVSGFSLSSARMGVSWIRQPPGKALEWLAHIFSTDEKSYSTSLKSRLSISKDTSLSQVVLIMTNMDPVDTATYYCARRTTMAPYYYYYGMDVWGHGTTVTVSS VL: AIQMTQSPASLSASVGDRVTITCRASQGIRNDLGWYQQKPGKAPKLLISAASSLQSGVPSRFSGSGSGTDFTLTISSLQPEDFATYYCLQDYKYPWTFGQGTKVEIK	0.000149
H4H8062P (antibody, human IgG4, V domains shown, human IgG4 Fc (H4H prefix)) VH: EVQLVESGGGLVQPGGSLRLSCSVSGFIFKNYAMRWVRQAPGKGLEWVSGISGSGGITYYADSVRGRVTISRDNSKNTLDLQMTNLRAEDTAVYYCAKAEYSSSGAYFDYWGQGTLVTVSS VL: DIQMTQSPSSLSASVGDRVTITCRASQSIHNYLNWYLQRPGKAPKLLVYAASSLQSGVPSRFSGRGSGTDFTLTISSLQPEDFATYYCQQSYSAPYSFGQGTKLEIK	0.00022
H4H8056P (antibody, human IgG4, V domains shown, human IgG4 Fc (H4H prefix)) VH: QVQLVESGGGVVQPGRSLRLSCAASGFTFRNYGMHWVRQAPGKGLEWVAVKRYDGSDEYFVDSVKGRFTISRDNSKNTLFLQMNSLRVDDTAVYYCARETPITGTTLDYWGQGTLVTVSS VL: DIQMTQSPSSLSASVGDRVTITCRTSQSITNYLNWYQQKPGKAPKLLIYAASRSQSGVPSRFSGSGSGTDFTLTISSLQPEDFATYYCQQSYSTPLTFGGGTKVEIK	0.000272

Exam item: Need koff of H4H8066P (antibody, human IgG4, V domains shown, human IgG4 Fc (H4H prefix)) VH: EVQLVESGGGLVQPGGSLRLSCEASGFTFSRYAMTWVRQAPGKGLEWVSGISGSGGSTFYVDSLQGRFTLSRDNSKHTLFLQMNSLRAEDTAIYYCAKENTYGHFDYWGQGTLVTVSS VL: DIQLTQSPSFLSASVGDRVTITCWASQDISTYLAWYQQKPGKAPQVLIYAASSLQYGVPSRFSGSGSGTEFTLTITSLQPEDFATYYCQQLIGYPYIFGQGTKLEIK , thanks.
Marked response: 0.00012

Exam item: Need koff of H4H8067P (antibody, human IgG4, V domains shown, human IgG4 Fc (H4H prefix)) VH: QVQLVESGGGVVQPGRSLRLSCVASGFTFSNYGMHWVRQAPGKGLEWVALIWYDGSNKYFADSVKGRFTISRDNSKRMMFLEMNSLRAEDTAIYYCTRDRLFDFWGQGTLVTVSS VL: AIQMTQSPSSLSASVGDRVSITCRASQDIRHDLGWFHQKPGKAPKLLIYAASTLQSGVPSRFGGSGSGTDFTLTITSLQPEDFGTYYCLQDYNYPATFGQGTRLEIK , thanks.
Marked response: 0.000158
